Every entry's value here was drawn from ChEMBL document CHEMBL1201862.

system: SF-268; assay: NCI tumour cell line growth inhibition, 48 h
Active and inactive are the calls of the source. Cut-off read from the data, not from the text of the source: active = GI50 up to about 1.1 µM and inactive = higher.
measured_property: GI50

Examples with their reported GI50 follow.
compound | tested_target | GI50
CCC(C)c1c(Cl)nc(Cl)nc1Cl (stereo unspecified) | SF-268 | 8.04 µM (inactive)
Cc1c(Cl)cccc1NC(=O)C(=O)c1c(O)c2ccc(O)cc2oc1=O | SF-268 | > 100 µM (inactive)
Cc1cc(S(=O)(=O)Nc2nc(N)nc(N(C)C)n2)c(SC(C(=O)O)c2ccccc2)cc1Cl (stereo unspecified) | SF-268 | > 10 µM (inactive)
CC#CC(O)(C(=O)OC1CC2CCC(C1)N2C)C1CCCC1 (stereo unspecified) | SF-268 | > 100 µM (inactive)

For every item below, please supply its GI50.
1. COc1ccc(C2C(N)=NCC2c2ccccn2)cc1 (stereo unspecified)
2. O=C(O)c1ccc(/N=C(\C(=N\c2ccc(C(=O)O)cc2)c2ccccc2)c2ccccc2)cc1

Result:
1: > 100 µM (inactive); 2: > 100 µM (inactive)
